- Experimental target: CHO-hB2 cell membranes (Homo sapiens)
- Construct: purchased Receptor Biology, Inc. (Baltimore, MD); host or cells: CHO-hB2 cells (membranes)
- Sequence (P30411 whole entry): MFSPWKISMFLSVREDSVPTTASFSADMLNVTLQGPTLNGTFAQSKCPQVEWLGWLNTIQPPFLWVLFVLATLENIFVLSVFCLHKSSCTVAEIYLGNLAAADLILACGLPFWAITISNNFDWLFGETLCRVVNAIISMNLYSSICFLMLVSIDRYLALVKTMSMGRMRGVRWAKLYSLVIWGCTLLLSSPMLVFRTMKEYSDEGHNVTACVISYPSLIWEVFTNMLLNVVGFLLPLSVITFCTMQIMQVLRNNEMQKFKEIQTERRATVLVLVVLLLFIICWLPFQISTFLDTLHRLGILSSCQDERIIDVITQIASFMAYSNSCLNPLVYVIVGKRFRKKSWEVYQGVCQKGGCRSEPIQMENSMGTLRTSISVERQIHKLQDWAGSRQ
- Assay: [35S]GTPγS Binding Assay in CHO-hB2 Cell Membranes
- Type: biochemical
- Test settings: number in parentheses; bradykinin-stimulated [35S]GTPγS binding; test concentration not given
- Procedure: CHO-hB2 cell membranes were purchased from Receptor Biology, Inc. (Baltimore,MD). 10 mg/mL of membrane protein was suspended in 10 mM TRIS-HC pH 7.2, 2 mM EDTA, 10% sucrose. Membranes were added into 15 mL ice cold binding assay buffer. The assay buffer contained 50 mM HEPES, pH 7.6, 5 mM MgCl2, 100 mM NaCl, 1 mM DTT and 1 mM EDTA. The membrane suspension was homogenized twice with a Polytron and centrifuged at 3000 rpm for 10 min. The supernatant was then centrifuged at 18,000 rpm for 20 min. […]
Recorded Functional Activity (% Basal) for the following compounds
Property name: Functional Activity (% Basal)

{"Compound": "Cc1ccc2cccc(OCc3c(C)ccc(N(C)C(=O)Cc4ccc(C(=O)c5ccc(Cl)nc5)n4C)c3C)c2n1 [Compound 77]", "Units of measure": "% Basal", "Experimental value": 62}
{"Compound": "Cc1ccc2cccc(OCc3c(Cl)ccc(N(C)C(=O)Cc4ccc(C(=O)c5ccc(C#N)cc5)n4C)c3Cl)c2n1 [Compound 76]", "Units of measure": "% Basal", "Experimental value": 79}
{"Compound": "Cc1ccc2cccc(OCc3c(Cl)ccc(N(C)C(=O)Cc4ccc(C(=O)c5ccc(C#N)cc5)n4CC4CC4)c3Cl)c2n1 [Compound 11]", "Units of measure": "% Basal", "Experimental value": 1}
{"Compound": "Cc1ccc2cccc(OCc3c(C)ccc(N(C)C(=O)CCc4ccc(C(=O)c5cccnc5)n4C)c3C)c2n1 [Compound 84]", "Units of measure": "% Basal", "Experimental value": 57}
{"Compound": "Cc1ccc2cccc(OCc3c(Cl)ccc(N(C)C(=O)Cc4ccc(C(=O)CN5CCC(Cc6ccccc6)CC5)n4C)c3Cl)c2n1 [Compound 59]", "Units of measure": "% Basal", "Experimental value": 1}
{"Compound": "CCn1c(CC(=O)N(C)c2ccc(Cl)c(COc3cccc4ccc(C)nc34)c2Cl)ccc1C(=O)c1ccc(C#N)cc1 [Compound 8]", "Units of measure": "% Basal", "Experimental value": 40}
{"Compound": "Cc1ccc2cccc(OCc3c(Cl)ccc(N(C)C(=O)CCc4ccc(C(=O)c5cccs5)n4C)c3Cl)c2n1 [Compound 81]", "Units of measure": "% Basal", "Experimental value": 1}
{"Compound": "Cc1ccc2cccc(OCc3c(Cl)ccc(N(C)C(=O)CCc4ccc(C(=O)c5ccncc5)n4C)c3Cl)c2n1 [Compound 83]", "Units of measure": "% Basal", "Experimental value": 45}
{"Compound": "COC(=O)c1ccc(C(=O)c2ccc(CC(=O)N(C)c3ccc(Cl)c(COc4cccc5ccc(C)nc45)c3Cl)n2C)cc1 [Compound 64]", "Units of measure": "% Basal", "Experimental value": 45}
{"Compound": "Cc1ccc2cccc(OCc3c(Cl)ccc(N(C)C(=O)Cc4ccc(C(=O)c5ccc([S+](C)[O-])cc5)n4C)c3Cl)c2n1 (stereo not drawn) [Compound 73]", "Units of measure": "% Basal", "Experimental value": 78}
{"Compound": "COc1ccc(C(=O)c2ccc(CC(=O)N(C)c3ccc(Cl)c(COc4cccc5ccc(C)nc45)c3Cl)[nH]2)cc1 [Compound 5]", "Units of measure": "% Basal", "Experimental value": 61}
{"Compound": "Cc1ccc2cccc(OCc3c(Cl)ccc(N(C)C(=O)Cc4ccc(C(=O)c5ccc(C(=O)N(C)C)cc5)n4C)c3Cl)c2n1 [Compound 62]", "Units of measure": "% Basal", "Experimental value": 59}
{"Compound": "Cc1ccc2cccc(OCc3c(C)ccc(N(C)C(=O)Cc4ccc(C(=O)c5ccc(C#N)cc5)n4C)c3C)c2n1 [Compound 79]", "Units of measure": "% Basal", "Experimental value": 100}
{"Compound": "COc1ccc(C(=O)c2ccc(CC(=O)N(C)c3ccc(Cl)c(COc4cccc5ccc(C)nc45)c3Cl)n2C)cc1 [Compound 68]", "Units of measure": "% Basal", "Experimental value": 4}
{"Compound": "Cc1ccc2cccc(OCc3c(Cl)ccc(N(C)C(=O)CCc4ccc(C(=O)c5ccc(Cl)nc5)n4C)c3Cl)c2n1 [Compound 89]", "Units of measure": "% Basal", "Experimental value": 51}
{"Compound": "CSc1ccc(C(=O)c2ccc(CC(=O)N(C)c3ccc(Cl)c(COc4cccc5ccc(C)nc45)c3Cl)n2C)cc1 [Compound 69]", "Units of measure": "% Basal", "Experimental value": 41}
{"Compound": "Cc1ccc2cccc(OCc3c(C)ccc(N(C)C(=O)CCc4ccc(C(=O)c5ccc(C#N)cc5)n4C)c3C)c2n1 [Compound 90]", "Units of measure": "% Basal", "Experimental value": 50}
{"Compound": "CC(=O)Nc1ccc(C=CC(=O)NC[C@H]2CCCN2c2ccc(C)c(COc3cccc4ccc(C)nc34)c2C)cn1 [Compound 112]", "Units of measure": "% Basal", "Experimental value": 59}
{"Compound": "CCCn1c(CC(=O)N(C)c2ccc(Cl)c(COc3cccc4ccc(C)nc34)c2Cl)ccc1C(=O)c1ccc(C#N)cc1 [Compound 9]", "Units of measure": "% Basal", "Experimental value": 1}
{"Compound": "Cc1ccc2cccc(OCc3c(C)ccc(N(C)C(=O)CCc4ccc(C(=O)c5ccncc5)n4C)c3C)c2n1 [Compound 82]", "Units of measure": "% Basal", "Experimental value": 50}
{"Compound": "Cc1ccc2cccc(OCc3c(C)ccc(N(C)C(=O)Cc4ccc(C(=O)c5ccc(C#N)nc5)n4C)c3C)c2n1 [Compound 78]", "Units of measure": "% Basal", "Experimental value": 83}
{"Compound": "Cc1ccc2cccc(OCc3c(Cl)ccc(N(C)C(=O)Cc4ccc(C(=O)c5ccc([N+](=O)[O-])cc5)n4C)c3Cl)c2n1 [Compound 63]", "Units of measure": "% Basal", "Experimental value": 33}
{"Compound": "Cc1ccc2cccc(OCc3c(Cl)ccc(N(C)C(=O)Cc4ccc(C(=O)CN5CCC(c6ccccc6)CC5)n4C)c3Cl)c2n1 [Compound 58]", "Units of measure": "% Basal", "Experimental value": 1}
{"Compound": "Cc1ccc2cccc(OCc3c(Cl)ccc(N(C)C(=O)CCc4ccc(C(=O)c5cccnc5)n4C)c3Cl)c2n1 [Compound 85]", "Units of measure": "% Basal", "Experimental value": 65}
{"Compound": "Cc1ccc2cccc(OCc3c(Cl)ccc(N(C)C(=O)Cc4ccc(C(=O)c5ccc([N+](=O)[O-])c(C)c5)n4C)c3Cl)c2n1 [Compound 65]", "Units of measure": "% Basal", "Experimental value": 35}
{"Compound": "Cc1ccc2cccc(OCc3c(Cl)ccc(N(C)C(=O)Cc4ccc(C(=O)c5ccccc5[N+](=O)[O-])n4C)c3Cl)c2n1 [Compound 66]", "Units of measure": "% Basal", "Experimental value": 35}
{"Compound": "CCN(C(=O)Cc1ccc(C(=O)c2ccc(C#N)cc2)n1C)c1ccc(Cl)c(COc2cccc3ccc(C)nc23)c1Cl [Compound 18]", "Units of measure": "% Basal", "Experimental value": 1}
